Entries and their inhibition at 5 µM values follow.
- Assay target: TYRO3 (Homo sapiens)
- Sequence (Q06418 41-890, species assumed): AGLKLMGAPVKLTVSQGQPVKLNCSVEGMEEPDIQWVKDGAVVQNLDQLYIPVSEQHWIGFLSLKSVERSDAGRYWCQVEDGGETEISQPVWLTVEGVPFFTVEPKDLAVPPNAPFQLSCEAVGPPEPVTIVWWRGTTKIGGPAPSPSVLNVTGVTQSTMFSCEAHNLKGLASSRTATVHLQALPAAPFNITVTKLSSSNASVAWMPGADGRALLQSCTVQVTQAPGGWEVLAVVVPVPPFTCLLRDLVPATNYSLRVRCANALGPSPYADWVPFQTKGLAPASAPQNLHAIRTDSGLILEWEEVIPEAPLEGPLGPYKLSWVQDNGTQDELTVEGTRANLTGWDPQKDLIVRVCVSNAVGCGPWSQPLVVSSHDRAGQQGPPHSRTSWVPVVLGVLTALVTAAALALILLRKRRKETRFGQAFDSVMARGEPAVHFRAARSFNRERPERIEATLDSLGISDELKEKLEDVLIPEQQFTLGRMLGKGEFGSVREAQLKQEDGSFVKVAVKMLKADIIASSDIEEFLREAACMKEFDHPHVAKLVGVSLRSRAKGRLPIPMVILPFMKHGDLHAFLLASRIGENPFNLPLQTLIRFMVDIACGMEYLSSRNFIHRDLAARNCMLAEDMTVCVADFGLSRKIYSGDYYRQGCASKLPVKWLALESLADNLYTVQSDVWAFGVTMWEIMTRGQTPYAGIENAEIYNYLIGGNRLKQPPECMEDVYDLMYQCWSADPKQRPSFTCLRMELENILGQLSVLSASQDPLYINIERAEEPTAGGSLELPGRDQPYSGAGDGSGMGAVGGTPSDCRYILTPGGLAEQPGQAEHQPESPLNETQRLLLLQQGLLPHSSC
- Protocol summary: Kinase panel (mobility shift)
- Type: biochemical

Answered examples (6):
[2H]C([2H])([2H])NC(=O)c1cc(Oc2ccc(NC(=O)c3nc(SC)oc3-c3ccc(F)c(F)c3)cc2F)ccn1 [Compound 33]	50 to 79%
CSc1nc(C(=O)Nc2ccc(Oc3ccnc(C(=O)NC4COC4)c3)c(F)c2)c(-c2ccc(F)s2)o1 [Compound 28]	< 50%
CNC(=O)c1cc(Oc2ccc(NC(=O)c3nc(NC)sc3-c3ccc(F)cc3F)cc2F)ccn1 [Compound 21]	< 50%
CNC(=O)c1cc(Oc2c(F)cc(NC(=O)c3nc(NC)sc3-c3ccc(F)cc3)cc2F)ccn1 [Compound 19]	50 to 79%
CSc1nc(C(=O)Nc2ccc(Oc3ccnc(C(=O)NC4CNC4)c3)c(F)c2)c(-c2ccc(F)cc2)o1 [Compound 29]	50 to 79%
CNC(=O)c1cc(Oc2ccc(NC(=O)c3nc(SC)oc3-c3ccc(F)cc3F)cc2)ccn1 [Compound 6]	≥ 95%

As a next step, examine the compound that follows.
Q: // inhibition at 5 µM lookup, key: CNC(=O)c1cc(Oc2ccc(NC(=O)c3nc(COC)oc3-c3ccc(F)cc3)cc2F)ccn1 [Compound 30]
Result: ≥ 95%

----------
- Assay target: BRK (Homo sapiens)
- Sequence (Q13882 whole entry, species assumed): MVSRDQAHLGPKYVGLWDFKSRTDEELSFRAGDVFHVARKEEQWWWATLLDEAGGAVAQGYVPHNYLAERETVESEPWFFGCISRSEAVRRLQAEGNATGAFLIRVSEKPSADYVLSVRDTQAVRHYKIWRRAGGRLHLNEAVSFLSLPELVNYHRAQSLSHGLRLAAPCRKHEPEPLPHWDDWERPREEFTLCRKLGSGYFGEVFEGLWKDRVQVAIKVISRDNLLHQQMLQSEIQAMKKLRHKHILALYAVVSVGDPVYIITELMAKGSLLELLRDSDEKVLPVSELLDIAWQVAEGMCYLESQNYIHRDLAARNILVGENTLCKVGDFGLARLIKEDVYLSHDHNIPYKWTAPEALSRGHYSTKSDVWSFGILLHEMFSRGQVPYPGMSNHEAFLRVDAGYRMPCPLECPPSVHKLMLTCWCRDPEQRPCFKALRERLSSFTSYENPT
- Protocol summary: Kinase panel (mobility shift)
- Assay type: biochemical
Endpoint name: inhibition at 5 µM

Answered examples (8):
CSc1nc(C(=O)Nc2ccc(Oc3ccnc(C(=O)NC4COC4)c3)c(F)c2)c(-c2ccc(F)c(F)c2)o1 [Compound 37]	< 50%
CSc1nc(C(=O)Nc2ccc(Oc3ccnc(C(=O)NC4COC4)c3)c(F)c2)c(-c2ccc(F)cc2)o1 [Compound 31]	80 to 89%
CNC(=O)c1cc(Oc2ccc(NC(=O)c3nc(SC)oc3-c3ccc(F)c(F)c3)cc2)ccn1 [Compound 4]	50 to 79%
CNC(=O)c1cc(Oc2ccc(NC(=O)c3nc(SC)oc3-c3ccc(Cl)s3)cc2)ccn1 [Compound 5]	50 to 79%
CNC(=O)c1cc(Oc2ccc(NC(=O)c3nc(OCC(F)(F)F)oc3-c3ccc(F)cc3)cc2F)ccn1 [Compound 38]	90 to 94%
CSc1nc(C(=O)Nc2ccc(Oc3cc4cnn(C)c4cc3Br)c(F)c2)c(-c2ccc(F)cc2)o1 [Compound 2]	< 50%
CSc1nc(C(=O)Nc2ccc(Oc3ccnc(C(=O)NC4CNC4)c3)c(F)c2)c(-c2ccc(F)s2)o1 [Compound 27]	< 50%
CNC(=O)c1cc(Oc2ccc(NC(=O)c3nc(SC)oc3-c3ccc(F)s3)cc2F)ccn1 [Compound 16]	< 50%

Q: Lookup: inhibition at 5 µM / BRK (Homo sapiens) / CSc1nc(C(=O)Nc2ccc(Oc3ccnc(C(=O)NCCN(C)C)c3)c(F)c2)c(-c2ccc(F)cc2)o1 [Compound 41]
Result: ≥ 95%

Q: What about [2H]C([2H])([2H])NC(=O)c1cc(Oc2ccc(NC(=O)c3nc(SC)oc3-c3ccc(F)c(F)c3)cc2F)ccn1 [Compound 33] ?
Result: 50 to 79%

Q: What about CNC(=O)c1cc(Oc2ccc(NC(=O)c3nc(OC)oc3-c3ccc(F)s3)cc2F)ccn1 [Compound 25] ?
Result: < 50%

----------
Entries and their inhibition at 5 µM values follow.
- Assay target: TIE2 (Homo sapiens, UniProt Q02763)
- Sequence (Q02763 23-1124, species assumed): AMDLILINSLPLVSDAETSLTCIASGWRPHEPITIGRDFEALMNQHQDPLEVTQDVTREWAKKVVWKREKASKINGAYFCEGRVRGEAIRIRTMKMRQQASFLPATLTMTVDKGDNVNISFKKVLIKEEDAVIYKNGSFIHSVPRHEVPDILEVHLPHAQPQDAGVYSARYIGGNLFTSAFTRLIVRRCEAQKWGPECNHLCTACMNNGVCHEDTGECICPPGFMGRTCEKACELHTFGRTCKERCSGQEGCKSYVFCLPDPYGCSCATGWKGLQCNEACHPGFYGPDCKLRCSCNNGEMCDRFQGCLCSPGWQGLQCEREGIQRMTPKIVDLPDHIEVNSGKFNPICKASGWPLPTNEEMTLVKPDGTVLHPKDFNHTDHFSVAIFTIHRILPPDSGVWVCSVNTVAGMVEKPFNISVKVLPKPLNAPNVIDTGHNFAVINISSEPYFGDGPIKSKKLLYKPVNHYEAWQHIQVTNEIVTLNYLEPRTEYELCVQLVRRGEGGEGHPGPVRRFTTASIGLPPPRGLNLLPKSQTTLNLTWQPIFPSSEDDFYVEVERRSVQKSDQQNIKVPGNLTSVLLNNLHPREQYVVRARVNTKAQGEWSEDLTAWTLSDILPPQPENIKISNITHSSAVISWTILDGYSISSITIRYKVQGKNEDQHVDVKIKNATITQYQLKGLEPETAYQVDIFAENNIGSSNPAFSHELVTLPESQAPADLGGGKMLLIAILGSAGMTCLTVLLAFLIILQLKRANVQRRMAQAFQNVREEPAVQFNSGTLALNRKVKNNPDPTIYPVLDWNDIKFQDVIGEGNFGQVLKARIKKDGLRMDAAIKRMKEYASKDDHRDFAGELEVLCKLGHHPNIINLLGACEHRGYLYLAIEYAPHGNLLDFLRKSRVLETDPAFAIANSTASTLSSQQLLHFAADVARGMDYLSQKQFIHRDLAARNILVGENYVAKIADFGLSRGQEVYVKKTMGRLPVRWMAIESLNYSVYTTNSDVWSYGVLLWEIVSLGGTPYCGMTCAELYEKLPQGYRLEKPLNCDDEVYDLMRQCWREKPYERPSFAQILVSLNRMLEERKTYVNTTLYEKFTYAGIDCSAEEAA
- Protocol summary: Kinase panel (mobility shift)
- Type: biochemical

Answered examples (3):
CSc1nc(C(=O)Nc2ccc(Oc3ccnc(-c4cnn(C)c4)c3)c(F)c2)c(-c2ccc(F)cc2)o1	80 to 89%
CNC(=O)c1cc(Oc2ccc(NC(=O)c3nc(SC)oc3-c3ccc(Cl)s3)cc2)ccn1	< 50%
CNC(=O)c1cc(Oc2ccc(NC(=O)c3nc(SC)oc3-c3ccc(F)c(F)c3)cc2)ccn1	< 50%

Q: // inhibition at 5 µM lookup, key: "[2H]C([2H])([2H])NC(=O)c1cc(Oc2ccc(NC(=O)c3nc(SC)oc3-c3ccc(F)s3)cc2F)ccn1"
Result: < 50%

Q: What about "CNC(=O)c1cc(Oc2ccc(NC(=O)c3nc(C4CC4)oc3-c3ccc(F)cc3)cc2F)ccn1" ?
Result: 80 to 89%

Q: What about "CNC(=O)c1cc(Oc2ccc(NC(=O)c3nc(NC)sc3-c3ccc(F)cc3F)cc2F)ccn1" ?
Result: 50 to 79%

Q: What about "CSc1nc(C(=O)Nc2ccc(Oc3ccnc(C(=O)NCC(F)(F)F)c3)c(F)c2)c(-c2ccc(F)cc2)o1" ?
Result: < 50%

Q: What about "CNC(=O)c1cc(Oc2ccc(NC(=O)c3nc(SC)oc3-c3ccc(F)cc3F)cc2F)ccn1" ?
Result: 50 to 79%
